Tested on: human prostate cancer cell LNCaP-FGC
Test: Prostate specific antigen (PSA) production inhibition in prostate cancer cell
Format: cell-based
Details: 72 h, 1 μM compound, testosterone 1 ng/mL, three days, PSA in culture supernatant by ELISA, testosterone non-added group 100%, testosterone-added group 0%, read-out: PSA production Inhibitory rate (%) at 1 μM
A collection of molecules and their measured inhibition at 1 µM
Write the number in % without appending the unit.

A selection of reference data follows.
{"Molecule": "CC(O)(CS(=O)(=O)c1ccc(F)cc1)C(=O)Nc1ccc(C#N)c(C(F)(F)F)c1 (stereo not drawn) [bicalutamide, reference compound]", "Reading": 58}
{"Molecule": "Cc1cc(-c2ccc(C#N)cc2)c(C#N)n1Cc1cnc(Cl)c(CO)c1", "Reading": 99}
{"Molecule": "Cc1c(C#N)c(-c2ccc(C#N)cc2)c(C)n1Cc1cnc(Cl)c(CO)c1", "Reading": 99}
{"Molecule": "Cc1c(-c2ccc(C#N)cc2)c(C#N)c(C2CC2)n1Cc1cnc(Cl)c(CO)c1", "Reading": 99}
{"Molecule": "Cc1c(C#N)c(-c2cccc(C#N)c2)c(C)n1Cc1cnc(Cl)c(CO)c1", "Reading": 94}

**Q:** Can you look up the measured inhibition at 1 µM of `CCCc1c(C#N)c(-c2ccc(C#N)cc2)c(C)n1Cc1cnc(Cl)c(CO)c1` for me?
**A:** 99
